- Read-out: Monocyte Chemoattractant Protein-1 (MCP1), CCL2 (gene 6347)
- methodNotes: BSK_3C_MCP1: BioMAP Diversity Plus: 3C Assay for Monocyte Chemoattractant Protein-1 (MCP1) Biomarker Activity (AID 2283017)
- runConditions: primary human endothelial cells (HUVEC); actives raise or lower the signal
The source made the active and inactive calls. How the source made its calls: active means hit-call score of the fitted dose curve at least 0.9, where 1 is the maximum; inactive means score below 0.9.
Response enum: active, inactive

Examples from the recorded data:
{"molecule": "CC(=O)C1(C)CC2=C(CCCC2(C)C)CC1C (stereo not drawn)", "assignedCategory": "active"}
{"molecule": "C=CC(C)(O)CCC=C(C)C (stereo not drawn)", "assignedCategory": "inactive"}
{"molecule": "CC(C)(C)CC(C)(C)c1ccc(OCCOCC[N+](C)(C)Cc2ccccc2)cc1", "assignedCategory": "active"}
{"molecule": "C1=CC2C3C=CC(C3)C2C1 (stereo not drawn)", "assignedCategory": "inactive"}

Task: Tell me the assay call for CC(C=O)Cc1ccc(C(C)(C)C)cc1 (stereo not drawn) please.
Result: active

Task: And `CCCCN(CCCC)C(=O)N(CCCC)CCCC` ?
Result: active

Task: Please do the same for `C[C@@H]1CCN(C(=O)[C@H](CCCN=C(N)N)NS(=O)(=O)c2cccc3c2NC[C@H](C)C3)[C@@H](C(=O)O)C1` as well.
Result: inactive

Task: Can you handle `CS(=O)(=O)OCCCCOS(C)(=O)=O` next?
Result: inactive

Task: Moving on to the next molecule: CCC(C)c1cc([N+](=O)[O-])cc([N+](=O)[O-])c1OC(=O)OC(C)C (stereo not drawn)
Result: active

Task: Next: `Cc1cc(CCC(=O)OCCOCCOCCOC(=O)CCc2cc(C)c(O)c(C(C)(C)C)c2)cc(C(C)(C)C)c1O`
Result: active

Task: Follow-up item: `CCCCCC(C=O)=Cc1ccccc1`
Result: active

Task: And for `CN(C)C(=O)Nc1ccc(Oc2ccc(Cl)cc2)cc1` ?
Result: active

Task: Also `CN(C)C(=S)SC(=S)N(C)C` , if possible.
Result: active

---

- methodNotes: ATG_CMV_CIS: Attagene CIS-FACTORIAL HepG2 Assay for human CMV (Internal Marker) (AID 2282928);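 further: endpoint acts as a background internal control marker rather than a target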
- runConditions: HepG2 CMV promoter reporter, transcription factor profiling; actives raise or lower the signal
The source made the active and inactive calls. The calls were made as follows: active = hit-call score of the fitted dose curve at least 0.9, where 1 is the maximum; inactive = score below 0.9.
Please state which outcome applies, choosing from y for active, n for inactive

Past entries and their recorded results:
{"compound": "Oc1c(Cl)cc(Cl)c(Cl)c1Cc1c(O)c(Cl)cc(Cl)c1Cl", "assignedCategory": "y"}
{"compound": "CCCCCCCCCCCCCC(=O)OCC(O)CO (stereo not given)", "assignedCategory": "n"}
{"compound": "CCCCCc1ccco1", "assignedCategory": "n"}
{"compound": "Nc1ccccc1[N+](=O)[O-]", "assignedCategory": "n"}

Task: Assay result, entry `CCCCCCCCCCCC(=O)OC[C@@H](O)[C@H]1OC[C@H](O)[C@H]1O` — outcome?
Result: n

Task: CCCCCCC(CO)CCCC (stereo not given) ?
Result: n

Task: // repeat for OCCCCC(O)CO (stereo not given) and report
Result: n

Task: Try this compound too: `C[Si](C)(C)O[Si](C)(C)C`
Result: n

Task: Now this one: `FC(F)(F)COCC(F)(F)F`
Result: n

Task: Next compound up: CC(C)CC(C)CC(O)CC(C)C (stereo not given)
Result: n

Task: Lookup `OCC#CCO`
Result: n

Task: Now the same for `C=C(C#N)C(=O)OCC`
Result: n

Task: Can you handle `C[C@H]1C[C@@H](O)CC(C)(C)C1` next?
Result: n

Task: // same read-out, input: `COc1cc(CCC(C)=O)ccc1O`
Result: n

Task: // same read-out, input: `Cc1[nH]c(=O)c(C#N)cc1-c1ccncc1`
Result: y

---

- methodNotes: ATG_E_Box_CIS: Attagene CIS-FACTORIAL HepG2 Assay for human Enhancer Box (E-box) (AID 2282936)
- runConditions: HepG2 E-box cis-reporter transcription, actives raise or lower the signal
Calls of active or inactive are those of the source. The calls were made as follows: active = hit-call score of the fitted dose curve at least 0.9, where 1 is the maximum; inactive = score below 0.9.
assayMetric: outcome

A selection of reference data follows.
{"compound": "BrCc1cccc(Oc2ccccc2)c1", "outcome": "inactive"}
{"compound": "Cc1[nH]c(=O)c(C#N)cc1-c1ccncc1", "outcome": "inactive"}
{"compound": "O=C1OC[C@H](Cc2cccc(O)c2)[C@H]1Cc1cccc(O)c1", "outcome": "inactive"}
{"compound": "CCCC(C)C(O)CC (configuration not stated)", "outcome": "inactive"}
{"compound": "c1ccc(Oc2ccccc2)cc1", "outcome": "inactive"}

Task: Need outcome, item `CC(C)Nc1nc(N)nc(Cl)n1`
Result: inactive

Task: Also, `CCOc1ccc(N=Nc2ccc(C=Cc3ccc(N=Nc4ccc(OCC)cc4)cc3S(=O)(=O)O)c(S(=O)(=O)O)c2)cc1` please.
Result: inactive

Task: And what about the compound `O=C1OC(=O)c2c(Cl)c(Cl)c(Cl)c(Cl)c21` ?
Result: inactive

Task: What do you get for `Cc1ccc(S(=O)(=O)Oc2ccc(N=Nc3ccc(-c4ccc(N=Nc5c(O)ccc6cc(S(=O)(=O)O)cc(S(=O)(=O)O)c56)c(C)c4)cc3C)cc2)cc1` ?
Result: inactive

Task: Further, for `CC(=O)c1c(C)c([N+](=O)[O-])c(C(C)(C)C)c([N+](=O)[O-])c1C` ?
Result: inactive

Task: Try the compound CCC1(C)NC(=O)NC1=O (configuration not stated)
Result: inactive

Task: Field entry: CCCCC(CC)COC(=O)c1ccc(O)cc1 (configuration not stated)
Result: inactive

---

- methodNotes: ATG_Oct_MLP_CIS: Attagene CIS-FACTORIAL HepG2 Assay for human Octamer-Binding Transcription Factor (Oct) (AID 2282993)
- runConditions: HepG2 Attagene cis-factorial Oct reporter, mRNA; actives raise or lower the signal
Active and inactive are the calls of the source. The calls were made as follows: active = hit-call score of the fitted dose curve at least 0.9, where 1 is the maximum; inactive = score below 0.9.
In this exercise, the only acceptable responses are Yes (active), No (inactive)

Past entries and their recorded results:
{"compound": "OCCc1ccccc1", "assignedCategory": "No"}
{"compound": "Clc1ccc(C(c2ccccc2Cl)C(Cl)Cl)cc1 (stereo not drawn)", "assignedCategory": "Yes"}
{"compound": "O=C(c1ccccc1)C(O)c1ccccc1 (stereo not drawn)", "assignedCategory": "No"}
{"compound": "CC(=O)O[C@@H]1CC2CCC1(C)C2(C)C (stereo partly drawn)", "assignedCategory": "No"}

Task: Please let me know the test result on file for `Cc1cccc(Nc2ccccc2)c1` .
Result: No

Task: // same read-out, input: `O=c1[nH]c(=O)c2cn[nH]c2[nH]1`
Result: No

Task: Quick one: CC(=O)C1(C)CC2=C(CCCC2(C)C)CC1C (stereo not drawn)
Result: Yes

Task: Another compound: `COc1ccc(CCO)cc1`
Result: No

Task: Also need `C[N+](C)(C)CCCCCC[N+](C)(C)C` , thanks.
Result: No

Task: Again, but for `CC(=O)O[C@@H]1C[C@@H]2CC[C@@]1(C)C2(C)C`
Result: No

Task: Same question, CC1C2CC(CC2C2CCCC(O)C2)C1(C)C (stereo not drawn) this time
Result: No

Task: Item: `Cc1cc(=O)oc2cc(N(C)C)ccc12`
Result: Yes

Task: // next record `COc1ccccc1N=Nc1c(S(=O)(=O)O)cc2cc(S(=O)(=O)O)cc(NC(C)=O)c2c1O`
Result: No

---

- methodNotes: ATG_MRE_CIS: Attagene CIS-FACTORIAL HepG2 Assay for human Metal Responsive Element (MRE) (AID 2282954)
- runConditions: HepG2 MRE cis-reporter transcription, Attagene multiplex; actives raise or lower the signal
The source made the active and inactive calls. Rule for the calls: active = hit-call score of the fitted dose curve at least 0.9, where 1 is the maximum; inactive = score below 0.9.
assayMetric: AC50

Previously resolved entries follow.
{"molecule": "OCCOCCN1CCN(C2=Nc3ccccc3Sc3ccccc32)CC1", "AC50": "71.7 µM (active)"}
{"molecule": "C=CCN(CC=C)CC=C", "AC50": "inactive"}
{"molecule": "Nc1ccc2c(O)cc(S(=O)(=O)O)cc2c1", "AC50": "inactive"}
{"molecule": "CC1(C)C2=CCCC(C)(C)[C@]23CC[C@H]1C3", "AC50": "100 µM (active)"}
{"molecule": "CS(=O)(=O)c1ccc(Cl)cc1", "AC50": "inactive"}
{"molecule": "CC(=O)OCCCc1ccccc1", "AC50": "inactive"}
{"molecule": "CC1(C)COCN1", "AC50": "inactive"}
{"molecule": "CSc1c(Cl)c(Cl)c(Cl)c(Cl)c1Cl", "AC50": "100 µM (active)"}

Task: Dear colleague, I am looking for the recorded AC50 of the following molecule: CCCCCCC(C)Nc1ccc(Nc2ccccc2)cc1 (stereo unspecified)
Result: 48.9 µM (active)
